# assay-name: Cytotoxicity against human Hep3B cells after 96 hrs by WST method
# Assay type: functional, cell-based, Hep 3B2
outcome-measure: IC50

Consider the compound shown here: `O=C1N[C@@H](Cc2ccccc2)C(=O)N(O)[C@@H]1C[C@]1(O)c2ccccc2N2C(=O)C[C@@H](c3ccccc3)N[C@H]21` What is its recorded IC50?
> 85 µM

----------
# System: HL-60
# assay-name: Cytotoxicity against human HL60 cells after 96 hrs by WST method
# Type: functional, cell-based
# condition-description: HL-60, 96 h
outcome-measure: IC50

What value of IC50 on HL-60 does `O=C1N[C@@H](Cc2ccccc2)C(=O)N(O)[C@@H]1C[C@]1(O)c2ccccc2N2C(=O)C[C@@H](c3ccccc3)N[C@H]21` have?
> 85 µM
